# Protocol details: Toxicity test/peroral
# Measurement context: in vivo, po; albino rat, peroral; evaluation after 7 days
# Experimental: Test animal: Albino rat (Rattus norvegicus) To produce a suitable preparation of active compound, 3 parts by weight of active compound were mixed with 2.8 parts by weight of highly-dispersed silica and 4.2 parts by weight of talc. […] The evaluation was carried out in each case after the end of the above-mentioned time interval, calculated from the administration of the active compound. […]
Hi there, I'd appreciate the recorded LD50 at 168 h for every entry that follows.

Prompt: What value of LD50 at 168 h has been reported for the following compound? CCCSP(=S)(OCC)OC(=CC(=O)OCC)c1cccc([N+](=O)[O-])c1 (stereo not shown) [drawing 27]
Completion: 100 to 250 mg/kg

Prompt: Same read-out for CCCOP(=S)(OCC)OC(=CC(=O)OCC)c1cccc([N+](=O)[O-])c1 (stereo not shown) ?
Completion: 50 to 100 mg/kg

Prompt: Next entry: CCOC(=O)C=C(OP(=S)(OCC)OCC)c1ccc([N+](=O)[O-])cc1 [drawing 26, reference compound]
Completion: 10 to 25 mg/kg

Prompt: Now the same for CCOC(=O)C=C(OP(=S)(OCC)c1ccccc1)c1cccc([N+](=O)[O-])c1 (stereo not shown)
Completion: 50 to 100 mg/kg

---

# Test system: Laphygma exigua
# Protocol details: Laphygma test
# Assay type: in vivo
# Measurement context: 0.001% by weight active compound
Reported metric: Degree of destruction in % after 3 days (%)
Write it as a number; the unit % goes unstated.

Prompt: Value lookup for Degree of destruction in % after 3 days; key = CCOC(=O)C=C(OP(=S)(OC)OC)c1ccc([N+](=O)[O-])cc1 [drawing 12, reference compound]
Completion: 0

Prompt: Consider next the compound `CCOC(=O)C=C(OP(=S)(OC)OC)c1cccc([N+](=O)[O-])c1` in the same way.
Completion: 85

Prompt: Can you handle CCOC(=O)C=C(OP(=S)(OCC)OCC)c1cccc([N+](=O)[O-])c1 [drawing 14] next?
Completion: 100

Prompt: Then this compound: CCOP(=S)(OCC)OC(=CC(=O)OC(C)C)c1cccc([N+](=O)[O-])c1 [drawing 19]
Completion: 100
